- tested_system: rhMBP (with Vitamin C) (Homo sapiens)
- Construct: made in house; host or cells: CHO DG44 (dhfr-), neomycin/MTX-resistant clones; purified from culture supernatant on mannan-agarose
- Sequence (P11226 21-248): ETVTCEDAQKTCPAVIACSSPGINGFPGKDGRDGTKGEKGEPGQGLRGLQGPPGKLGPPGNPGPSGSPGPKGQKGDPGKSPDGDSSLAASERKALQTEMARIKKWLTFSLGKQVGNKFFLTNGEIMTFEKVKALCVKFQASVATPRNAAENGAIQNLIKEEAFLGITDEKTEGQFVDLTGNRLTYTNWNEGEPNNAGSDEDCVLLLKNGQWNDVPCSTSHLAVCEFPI
- test_name: Sugar inhibition of rhMBP (cultured with vitamin C) binding to mannan (ELISA)
measured_attribute: pIC50
One number for each entry, as −log10 of the molar value.

item_smiles=O=C[C@@H](O)[C@@H](O)[C@H](O)[C@H](O)CO measured_attribute=pIC50 observed=2.17

Ask | Field request: pIC50 | item: O=C[C@H](O)[C@@H](O)[C@@H](O)[C@H](O)CO
Reply | 1.53

* * *

- tested_system: native hMBP (Homo sapiens, UniProt P11226)
- Construct: samples of stepwise dilution of the native hMBP, rhMBP (cultured with vitamin C), rhMBP (cultured without vitamin C)
- Sequence (P11226 21-248): as above
- test_name: Sugar inhibition of native hMBP binding to mannan (ELISA)
- condition_info: native hMBP; mannan-coated microtiter plates; read-out: I 50: Sugar concentration to halve binding activities with mannan
pIC50: −log10 of the molar value.
Tag: Condition met if measured pIC50 is not below 2, Condition not met if it is.

molecule=C[C@H](O)[C@@H](O)[C@@H](O)[C@H](O)C=O category_label="Condition met"
molecule="CC(=O)N[C@@H]1C(O)O[C@H](CO)[C@@H](O)[C@@H]1O (stereo partly shown)" category_label="Condition met"
molecule="CC(=O)N[C@H]1C(O)O[C@H](CO)[C@@H](O)[C@@H]1O (stereo partly shown)" category_label="Condition met"
molecule=C[C@@H](O)[C@H](O)[C@H](O)[C@@H](O)C=O category_label="Condition not met"
molecule=OC[C@H]1O[C@H](O[C@H]2[C@H](O)[C@@H](O)[C@H](O)O[C@@H]2CO)[C@H](O)[C@@H](O)[C@@H]1O category_label="Condition met"

Ask | Hi team, for OC[C@H]1O[C@@H](O[C@H]2[C@H](O)[C@@H](O)C(O)O[C@@H]2CO)[C@H](O)[C@@H](O)[C@H]1O (stereo partly shown) , is the recorded pIC50 at or above 2?
Reply | Condition not met

Ask | Hi team, for CC(=O)N[C@H]1C(O)O[C@H](CO)[C@H](O)[C@@H]1O (stereo partly shown) , is the recorded pIC50 at or above 2?
Reply | Condition not met

* * *

- tested_system: rhMBP (without Vitamin C) (Homo sapiens)
- Construct: made in house; host or cells: CHO DG44 (dhfr-), neomycin/MTX-resistant clones; purified from culture supernatant on mannan-agarose
- Sequence (P11226 21-248): as above
- test_name: Sugar inhibition of rhMBP (cultured without vitamin C) binding to mannan (ELISA)
measured_attribute: IC50 (mM)
Numbers only, in mM.

molecule="O=C[C@H](O)[C@@H](O)[C@@H](O)[C@H](O)CO [Galactose]" observed=36.7

From here, focus on the item given below.
Ask | Field request: IC50 | item: O=C[C@@H](O)[C@@H](O)[C@H](O)[C@H](O)CO [D-Mannose]
Reply | 6.8

* * *

- tested_system: native hMBP (Homo sapiens)
- Construct: samples of stepwise dilution of the native hMBP, rhMBP (cultured with vitamin C), rhMBP (cultured without vitamin C)
- test_name: Sugar inhibition of native hMBP binding to mannan (ELISA)
measured_attribute: IC50 (mM)
Give bare numbers, in mM.

molecule="O=C[C@H](O)[C@@H](O)[C@@H](O)[C@H](O)CO [Galactose]" measured_attribute=IC50 units=mM observed=24.2

From here, focus on the item given below.
Ask | Field request: IC50 | item: O=C[C@@H](O)[C@@H](O)[C@H](O)[C@H](O)CO [D-Mannose]
Reply | 3.7
